// values below are pIC50; system is eqBuChE (Equus caballus, UniProt P81908)
Sequence (P81908 whole entry): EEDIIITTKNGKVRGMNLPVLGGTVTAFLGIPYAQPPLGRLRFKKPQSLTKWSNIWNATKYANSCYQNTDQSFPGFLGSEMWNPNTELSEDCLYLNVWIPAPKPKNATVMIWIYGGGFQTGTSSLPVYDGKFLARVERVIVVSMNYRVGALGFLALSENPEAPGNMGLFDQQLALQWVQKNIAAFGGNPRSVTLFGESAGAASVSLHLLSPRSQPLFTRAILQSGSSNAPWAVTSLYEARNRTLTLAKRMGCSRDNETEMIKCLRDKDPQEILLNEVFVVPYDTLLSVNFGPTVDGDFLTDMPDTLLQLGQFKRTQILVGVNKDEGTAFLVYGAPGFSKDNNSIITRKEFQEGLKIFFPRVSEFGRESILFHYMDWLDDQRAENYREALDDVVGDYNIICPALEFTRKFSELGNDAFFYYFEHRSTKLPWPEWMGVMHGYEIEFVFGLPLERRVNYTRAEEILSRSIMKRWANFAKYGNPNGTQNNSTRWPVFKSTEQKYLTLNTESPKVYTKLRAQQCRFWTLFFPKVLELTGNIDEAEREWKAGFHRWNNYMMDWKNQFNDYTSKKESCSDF
pIC50 is a log-scale quantity: -log10 of the concentration expressed in molar.

Data request, read-out pIC50, for CCN(CCOc1ccc(CCC(=O)N2CCC(Cc3ccccc3)CC2)cc1OC)Cc1ccccc1 [10a] 6.66

Continue with CCN(CCCCCCCCCOc1ccc(CCC(=O)N2CCC(Cc3ccccc3)CC2)cc1OC)Cc1ccccc1 [10e] 6.55

// repeat for CCN(CCCCOc1ccc(C(=O)N2CCC(Cc3ccccc3)CC2)cc1OC)Cc1ccccc1 [7e] and report 6.33

Entry to check: COc1cc(C(=O)N2CCC(Cc3ccccc3)CC2)ccc1OCCCCN1CCN(Cc2ccccc2)CC1 [7b] 5.51

Now this one: CCN(CCCOc1ccc(CCC(=O)N2CCC(Cc3ccccc3)CC2)cc1OC)Cc1ccccc1 [10b] 7.17

Note, next up: CCN(CCCCOc1c(OC)cc(C(=O)NC2CCN(Cc3ccccc3)CC2)cc1OC)Cc1ccccc1 [7i] 5.59

Likewise for COc1cc(CCC(=O)N2CCC(Cc3ccccc3)CC2)ccc1OCCCCN1CC(C)CC(C)C1 (centres unmarked) [8g] ? 6.12

Let us now turn to COc1cc(CCC(=O)N2CCC(Cc3ccccc3)CC2)ccc1OCCCCN1CCC(CCCc2ccccc2)CC1 [8c] 7.20
